Cited source: patent US20230051268A1

# Experimental Details: Single-dose pharmacokinetic study of lemborexant and metabolites M4, M9, M10 in subjects with mild or moderate hepatic impairment and healthy controls (plasma, LC-MS/MS)
# Type: in vivo, human
# Settings: human, plasma, po, 10 mg, lemborexant 10 mg single oral dose; normal hepatic function (n = 8); geometric mean (% CV)
Assay Metric: Cmax (ng/mL)
Answers are plain numbers, in ng/mL.

Exam item: Return the recorded Cmax value; entry: Cc1ncc(OC[C@@]2(c3cccc(F)c3)C[C@H]2C(=O)Nc2ccc(F)cn2)c(C)n1 [lemborexant]
Marked response: 39.8

* * *

# Experimental Details: Single-dose pharmacokinetic study of lemborexant and metabolites M4, M9, M10 in subjects with mild or moderate hepatic impairment and healthy controls (plasma, LC-MS/MS)
# Type: in vivo, human
# Settings: human, plasma, po, 10 mg, lemborexant 10 mg single oral dose; normal hepatic function (n = 8); geometric mean (% CV); read-out: AUC(0-t)
Assay Metric: AUC(0-t) (ng·h/mL)
Answers are plain numbers, in ng·h/mL.

Exam item: Return the recorded AUC(0-t) value; entry: Cc1ncc(OC[C@@]2(c3cccc(F)c3)C[C@H]2C(=O)Nc2ccc(F)cn2)c(C)n1
Marked response: 435

* * *

# Experimental Details: Single-dose pharmacokinetic study of lemborexant and metabolites M4, M9, M10 in subjects with mild or moderate hepatic impairment and healthy controls (plasma, LC-MS/MS)
# Format: in vivo, human
# Settings: human, plasma, po, 10 mg, lemborexant 10 mg single oral dose; mild hepatic impairment (n = 8); geometric mean (% CV)
Assay Metric: Cmax (ng/mL)
Numbers only, in ng/mL.

Exam item: Return the recorded Cmax value; entry: Cc1ncc(OC[C@@]2(c3cccc(F)c3)C[C@H]2C(=O)Nc2ccc(F)cn2)c(C)n1
Marked response: 62.9

* * *

# Experimental Details: Single-dose pharmacokinetic study of lemborexant and metabolites M4, M9, M10 in subjects with mild or moderate hepatic impairment and healthy controls (plasma, LC-MS/MS)
# Type: in vivo, human
# Settings: human, plasma, po, 10 mg, lemborexant 10 mg single oral dose; moderate hepatic impairment (lemborexant n = 6); geometric mean (% CV); read-out: AUC(0-inf)
Assay Metric: AUC(0-inf) (ng·h/mL)
Give bare numbers, in ng·h/mL.

Exam item: Return the recorded AUC(0-inf) value; entry: Cc1ncc(OC[C@@]2(c3cccc(F)c3)C[C@H]2C(=O)Nc2ccc(F)cn2)c(C)n1
Marked response: 696

* * *

# Experimental Details: Plasma protein binding (unbound fraction) by equilibrium dialysis and LC-MS/MS, samples 1 and 24 hours postdose
# Type: in vitro ADME
# Settings: human, oral, 10 mg, lemborexant 10 mg single oral dose, moderate hepatic impairment (n = 8), geometric mean (% CV)
Assay Metric: fraction unbound
One number for each entry.

Exam item: Return the recorded fraction unbound value; entry: Cc1ncc(OC[C@@]2(c3cccc(F)c3)C[C@H]2C(=O)Nc2ccc(F)cn2)c(C)n1
Marked response: 0.065
